# tgt: CCK-B receptors (Cavia porcellus, UniProt H0VZC5)
# Construct: Cerebral cortices were removed from Hartley-strain guinea pigs, the cerebral cortices were homogenized; from tissue; host or cells: cerebral cortex of Hartley-strain guinea pigs, crude membrane pellet
# Sequence (H0VZC5 1-426): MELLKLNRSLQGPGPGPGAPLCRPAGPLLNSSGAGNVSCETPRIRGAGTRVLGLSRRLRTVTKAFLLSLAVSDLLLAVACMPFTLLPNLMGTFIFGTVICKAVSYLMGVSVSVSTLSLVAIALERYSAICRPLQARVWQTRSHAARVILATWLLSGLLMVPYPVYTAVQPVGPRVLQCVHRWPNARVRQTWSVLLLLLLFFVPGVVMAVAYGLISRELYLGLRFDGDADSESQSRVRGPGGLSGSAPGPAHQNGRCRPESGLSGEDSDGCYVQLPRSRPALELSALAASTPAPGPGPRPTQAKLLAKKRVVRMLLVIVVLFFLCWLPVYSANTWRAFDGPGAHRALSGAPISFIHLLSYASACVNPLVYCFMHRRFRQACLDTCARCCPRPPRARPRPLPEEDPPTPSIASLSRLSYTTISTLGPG
# method: Measurement of Binding Affinity for CCK-B Receptors
# Design: species or system Hartley-strain guinea pig
# condition_context: inhibition of specific [3H]CCK-8 (1.0 nM) binding; guinea pig cerebral cortex; 25° C., 2 hours; pH 6.5; read-out: Ki (CCK-B receptors)
pKi: −log10 of the molar value.
test_readout: pKi

[1] Cc1ccc2c(c1)N(CC(=O)C(C)(C)C)C(=O)C(NC(=O)Nc1cccc(C(=O)O)c1)CN2c1ccccc1 (single isomer, unassigned; (-)) [Example 97]
[2] Cc1ccccc1C(=O)CN1C(=O)C(NC(=O)Nc2cccc(-c3nnn[nH]3)c2)CN(C(=O)C(C)(C)C)c2ccccc21 (stereo not drawn) [Example 61]
[3] CC(C)(C)C(=O)CN1C(=O)C(NC(=O)Nc2cccc(SCC(=O)O)c2)CN(c2ccccc2)c2ccccc21 (stereo not drawn) [Example 33]
Input: Order the records by pKi, with each subsequent value no larger than the one before. # format: label list in the order the request specifies
Output: 3, 2, 1

###

# Test system: pentagastrin-stimulated acid secretion
# method: Measurement of Inhibition of Pentagastrin-stimulated Acid Secretion
# Type: in vivo, male Sprague-Dawley (SD)-strain rats
# condition_context: 30 mg/kg, intraduodenal, rat; acid output from 1 to 4 hours after administration; pentagastrin 15 μg/kg/hr
// reported inhibition in vivo at 30 mg/kg for each item listed
Give the value, in units of %, as a plain number.

Answered examples (2):
| compound | endpoint_result |
| --- | --- |
| Cc1ccc2c(c1)N(CC(=O)c1ccccc1C)C(=O)C(NC(=O)Nc1ccc(C)c(C(=O)O)c1)CN2C(=O)CC(C)(C)C (stereo not shown) | 88.3 |
| Cc1ccc2c(c1)N(CC(=O)c1ccccc1C)C(=O)C(NC(=O)Nc1cccc(C(=O)O)c1)CN2C(=O)C1CCCC1 (stereo not shown) | 80.1 |

Lab book: inhibition in vivo at 30 mg/kg of Cc1cccc(NC(=O)N[C@@H]2N=C(c3ccccc3)c3ccccc3N(C)C2=O)c1 [L-365, 260, reference compound] noted as 46.5

Kindly note the recorded inhibition in vivo at 30 mg/kg for Cc1ccc2c(c1)N(CC(=O)c1cccs1)C(=O)C(NC(=O)Nc1cccc(C(=O)O)c1)CN2C(=O)C(C)(C)C (stereo not shown) , which is 87.8

Each recorded value in this set is attributed to patent US6239131A.
